- subject_of_test: Upc2 (UniProt Q12151)
- Sequence: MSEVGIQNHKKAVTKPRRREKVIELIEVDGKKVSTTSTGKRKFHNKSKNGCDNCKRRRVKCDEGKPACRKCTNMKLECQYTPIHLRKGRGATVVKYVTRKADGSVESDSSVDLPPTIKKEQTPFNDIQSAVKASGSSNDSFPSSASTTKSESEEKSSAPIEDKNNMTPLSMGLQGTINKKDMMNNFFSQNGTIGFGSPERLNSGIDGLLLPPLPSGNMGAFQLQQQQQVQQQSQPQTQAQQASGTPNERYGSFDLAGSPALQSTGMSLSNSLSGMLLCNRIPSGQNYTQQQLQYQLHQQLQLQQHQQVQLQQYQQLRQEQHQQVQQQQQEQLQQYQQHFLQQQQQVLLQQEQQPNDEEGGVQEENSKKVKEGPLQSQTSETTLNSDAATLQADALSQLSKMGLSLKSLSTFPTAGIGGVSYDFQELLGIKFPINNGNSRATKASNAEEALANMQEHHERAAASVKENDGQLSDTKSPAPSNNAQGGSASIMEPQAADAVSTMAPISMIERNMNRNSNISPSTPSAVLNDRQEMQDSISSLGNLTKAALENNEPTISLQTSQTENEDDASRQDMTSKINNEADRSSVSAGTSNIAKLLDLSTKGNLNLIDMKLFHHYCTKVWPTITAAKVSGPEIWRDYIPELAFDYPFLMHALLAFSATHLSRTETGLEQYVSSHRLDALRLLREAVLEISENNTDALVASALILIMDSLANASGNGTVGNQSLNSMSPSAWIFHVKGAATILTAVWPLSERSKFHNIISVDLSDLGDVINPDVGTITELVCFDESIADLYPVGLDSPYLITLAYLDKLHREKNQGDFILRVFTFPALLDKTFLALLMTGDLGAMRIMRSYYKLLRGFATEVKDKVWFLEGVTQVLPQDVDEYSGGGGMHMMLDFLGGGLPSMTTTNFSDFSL
- assay_info: PBM E-score (8-mer binding enrichment) (E-score (-0.5 to 0.5)); higher = stronger / more preferred TF binding
- recorded_conditions: protein concentration: 200 nM; construct: GST-full length
Over roughly 33,000 sequences, “E-score (-0.5 to 0.5)” has its median near -0.043; the highest 2% begin near 0.37. The full list was thinned out, with the highest values kept by preference.
Given measured PBM E-score, output satisfied if it is greater than or equal to 0.1 and not satisfied if not.

>>> class_label("AACGAGTA")
"satisfied"
>>> class_label("AGTACGGC")
"satisfied"
>>> class_label("CAAGGTGG")
"not satisfied"
>>> class_label("AGTACGGA")
"satisfied"
>>> class_label("AACGAGTG")
"satisfied"
>>> class_label("GATGGTAC")
"satisfied"
>>> class_label("CGTACGGA")
"satisfied"
>>> class_label("GGTACGGA")
"satisfied"
>>> class_label("CATACGGG")
"satisfied"
>>> class_label("ACCACCTC")
"not satisfied"
>>> class_label("AACGCTGA")
"not satisfied"
>>> class_label("ATGGGCCC")
"not satisfied"
>>> class_label("AGCGAGTG")
"satisfied"
>>> class_label("AGCGAGTA")
"satisfied"
>>> class_label("CCTTGCGA")
"not satisfied"
>>> class_label("AACTTTCC")
"not satisfied"
>>> class_label("ACCGAGTA")
"satisfied"
>>> class_label("AAAGAGTT")
"not satisfied"
>>> class_label("CACGAGTA")
"satisfied"
